Assay comment: modulators of CIT2-GFP expression in yeast, confirmation, S. cerevisiae, GFP fusion, cherry picks, mother/daughter gates (AID 2274)
Protocol conditions: S. cerevisiae CIT2-GFP strain, flow cytometry, 3 h; at 10 µM; stronger effect = higher value
# key: entry, value: GFP response, % of DMSO
Give a bare numeral; the unit % is implied.

Return value of GFP response, % of DMSO for input `O=C1C=CC(=O)N1c1ccc(N2CCCCC2)cc1` , no commentary.
104

Please indicate GFP response, % of DMSO recorded for `COCc1nnc(NC(=O)c2ccc(S(=O)(=O)N3CCCCCC3)cc2)o1`
97.3

* * *

Assay comment: LAP4-GFP expression modulators in yeast, confirmation, cell-based, cherry picks, flow cytometry, mother/daughter gates (AID 2271);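 note: ratio of sample to DMSO plate mean so 100% equals DMSO level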
Protocol conditions: S. cerevisiae LAP4-GFP strain, 3 h, measured here: mother cell gate response, at 10 µM, stronger effect = higher value, 100 means same as DMSO control
Measured GFP response relative to DMSO accompanies every entry in the list below.
API: value field is a number in %; no unit string.

Below: 2 compounds and their reported GFP response relative to DMSO.
Supply recorded GFP response relative to DMSO for `Cc1cccc(OCCCSc2nc3ccc(C)cc3[nH]2)c1` here.
127

Supply GFP response relative to DMSO value. Item: `Cc1ccc(-n2nc(C)c3c(C)c(CCC(=O)O)c(C)nc32)cc1`
100

Now examine the next entry.
Dear colleague, please send me the reported GFP response relative to DMSO for `CCOC(=O)C1=C(Cc2ccc(Cl)cc2)C(=O)c2ccccc2C1=O` when you can.
111

* * *

Assay comment: RPL19A-GFP modulators, yeast TOR pathway, confirmation, cell-based, S. cerevisiae, flow cytometry, cherry picks, mother/daughter gates (AID 2270)
Protocol conditions: S. cerevisiae RPL19A-GFP strain, 3 h, measured here: mother cell gate, at 10 µM, stronger effect = lower value, 100 = same GFP as DMSO wells
Reported endpoint: GFP response vs DMSO (%)
Quick reminder: number only, in %, skip the unit.

Solved entries (count: 4):
State, in one line, measured GFP response vs DMSO of `NC(=O)c1ccccc1OCC(=O)c1ccc(Cl)cc1`
99

For Cc1cccn2c(=O)c(/C=C(\C#N)C(=O)NC3CCS(=O)(=O)C3)c(N3CCC(C(N)=O)CC3)nc12 (stereo unspecified) , write its GFP response vs DMSO.
102

Entry `COc1ccccc1/C=C/C=N/NC(=O)c1cccs1` needs its GFP response vs DMSO filled in; supply it.
97.5

# return recorded GFP response vs DMSO for input `O=C1C=C(c2ccccc2)C(=O)N1Nc1ccccc1`
64.5

Continuing:
Read the entry `O=C(NCC(=O)N1CCCC1)c1cccs1` and write its reported GFP response vs DMSO.
100

Return the recorded GFP response vs DMSO value; entry: `CCOC(=O)/C(=C\c1cn(C)c2ccccc12)[N+](=O)[O-]`
93.6

* * *

This section presents compounds with their documented GFP response vs DMSO values.
Assay comment: RPL19A-GFP modulators, yeast TOR pathway, confirmation, cell-based, S. cerevisiae, flow cytometry, cherry picks, mother/daughter gates (AID 2270)
Protocol conditions: S. cerevisiae RPL19A-GFP strain, 3 h, at 10 µM, stronger effect = lower value, 100 = same GFP as DMSO wells
Just the number please, in %, no unit attached.

Examples with answers:
Determine from records and report GFP response vs DMSO for CCCc1[nH]nc2c1C(c1ccc(OC)c(Cn3nc(C)c(Br)c3C)c1)C(C#N)=C(N)O2 (stereo not given)
95

Kindly indicate its recorded GFP response vs DMSO. Item: `O=[N+]([O-])c1ccc(Sc2ccc(Cl)c(Cl)c2)nc1`
97.1

Please report the measured GFP response vs DMSO for CCC1CCCCN1S(=O)(=O)c1ccc(C(=O)Nc2nnc(-c3ccccc3Cl)o2)cc1 (stereo not given)
97.6

Identify the reported GFP response vs DMSO for the following entry. `Cc1ccc2c(nc3s/c(=C\c4ccc(-c5ccccc5C(=O)O)o4)c(=O)n32)c1C`
119

Given the compound `O=C1c2ccsc2SCCN1Cc1ccc(Cl)cc1` , write its reported GFP response vs DMSO.
93.6

Output GFP response vs DMSO of `CC(=O)S[C@@H]1CC2=CC(=O)CC[C@]2(C)[C@H]2CC[C@@]3(C)[C@@H](CC[C@@]34CCC(=O)O4)[C@H]12`
101

State its GFP response vs DMSO: O=[N+]([O-])c1ccc(N2N=C(c3ccco3)CC2c2ccccc2)cc1 (stereo not given)
104

Return GFP response vs DMSO (reported value) for this compound: `O=C(O)c1ccc2c3c(ncnc13)-c1ccccc1C2=O`
113

Please give measured GFP response vs DMSO of the following entry: CCN(CC)S(=O)(=O)c1cccc(C(=O)NCC(c2ccccc2)N(C)C)c1 (stereo not given)
99.7

***
Specify reported GFP response vs DMSO for the compound shown: Cc1ccc(N2CC(C(=O)OCc3nnc(-c4ccccc4)o3)CC2=O)cc1 (stereo not given)
100

* * *

Assay comment: modulators of MEP2-GFP levels in yeast, primary screen, S. cerevisiae, multiplex flow cytometry (AID 1867);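 note: median GFP channel fluorescence of barcode-gated MEP2-GFP cells measured by flow cytometry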
Protocol conditions: S. cerevisiae MEP2-GFP strain, 3 h, at 10 µM, stronger effect = higher value, 100% means same as DMSO wells
Records with an inconclusive call do not appear. Active and inactive are the calls of the source.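 Rule for the calls: active = GFP response, as percent of the DMSO control, above the screen-wide mean plus 3 SD, about 139; inconclusive = no response measured because the compound's own fluorescence interfered; inactive = the rest.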
Reported endpoint: GFP response vs DMSO

The cases that follow already have their GFP response vs DMSO on record.
Let me know recorded GFP response vs DMSO for CC(C)Cc1ccc(C(C)C(=O)Nc2ccc(O)cc2)cc1 (stereo unspecified) , thanks.
105% (inactive)

Indicate the recorded GFP response vs DMSO value for this molecule: `CCOC(=O)c1oc2cc(OCC(N)=O)ccc2c(=O)c1-c1ccc(OC)c(OC)c1`
97.9% (inactive)

Please supply the value of reported GFP response vs DMSO for the item `COC(=O)c1cc(-c2ccc(C)o2)nc2ccccc12`
95.9% (inactive)

Continuing:
Return value of GFP response vs DMSO for input `Cc1ccc(S(=O)(=O)Nc2ccc(S(=O)(=O)Nc3cc(C)nc(C)n3)cc2)cc1` , no commentary.
120% (inactive)

Give the measured GFP response vs DMSO for COc1ccc(NC(=O)C2C(=O)N(CCO)C3(C)CC2c2ccccc2O3)cc1 (stereo unspecified)
106% (inactive)

Name the recorded GFP response vs DMSO of the molecule listed here: C#CCN1C(=O)C(O)(CC(=O)c2ccc(OC)c(OC)c2)c2ccccc21 (stereo unspecified)
103% (inactive)

Specify reported GFP response vs DMSO for the molecule shown: CO/N=C(\C(=O)N[C@@H]1C(=O)N2C(C(=O)O)=C(COC(C)=O)CS[C@H]12)c1csc(N)n1 (stereo in doubt)
99.9% (inactive)

* * *

Recorded GFP response vs DMSO, one value per entry.
Assay comment: modulators of MEP2-GFP levels in yeast, confirmation, S. cerevisiae, flow cytometry GFP, cherry picks (AID 2272);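 note: ratio of well signal to plate DMSO mean so 100% equals DMSO level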
Protocol conditions: S. cerevisiae MEP2-GFP strain, 3 h, at 10 µM, stronger effect = higher value
Value expressed in %; do not type the unit.

Example cases with answers are listed next.
Return reported GFP response vs DMSO. Input molecule: `O=C1Nc2ccc(Br)cc2/C1=C/C(=O)c1ccc2c(c1)OCO2`
105

Output measured GFP response vs DMSO for this item: `Cc1ccn2c(NC3CCCCC3)c(C(C)C)nc2c1`
100

Supply reported GFP response vs DMSO belonging to this molecule: `CCOC(=O)c1ccc(NC(=O)CCc2nc(-c3ccc(Cl)cc3)no2)cc1`
98.3

Check the records and state GFP response vs DMSO for `c1ccc(-c2n[nH]c3ccccc23)cc1`
96.2

Indicate the recorded GFP response vs DMSO value for this molecule: `O=C(Cc1ccc(-c2ccccc2)cc1)OCC(=O)N1CCCC1=O`
97.8

Please indicate GFP response vs DMSO recorded for O=C(NC(c1ccccc1)C(Cl)Cl)c1ccccc1 (configuration not stated)
128

New cases:
Note GFP response vs DMSO for the molecule shown: CCCCOC(=O)C1CCC[C@@H](C)N1 (some centres not stated)
103

Please list GFP response vs DMSO recorded for the molecule COCCCN1C(=O)C2C(C(=O)Nc3cc(C)cc(C)c3)C3C=CC2(O3)C1C(=O)NC1CCCCC1 (configuration not stated)
102

Could you please provide reported GFP response vs DMSO for `O=C(CSc1cccc[n+]1[O-])c1cc2ccccc2o1` ? Thanks!
109

Assign GFP response vs DMSO to the following record: `Cc1ccc(C(=O)c2nocc2C(=O)c2cccs2)cc1`
95.4

Report measured GFP response vs DMSO; entry is `O=C(OCn1ncc(Br)c(Br)c1=O)c1ccc(F)cc1`
116

Look up GFP response vs DMSO of `COc1ccc(N=Cc2nc(-c3ccccc3)oc2OC(C)=O)cc1` and report it.
95.4

* * *

Assay comment: LAP4-GFP expression modulators in yeast, confirmation, cell-based, cherry picks, flow cytometry, mother/daughter gates (AID 2271);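 note: ratio of sample to DMSO plate mean so 100% equals DMSO level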
Protocol conditions: S. cerevisiae LAP4-GFP strain, 3 h, measured here: daughter cell gate response, at 10 µM, stronger effect = higher value, 100 means same as DMSO control
Property: GFP response relative to DMSO; scope: individual molecules
API: value field is a number in %; no unit string.

The examples below pair each entry with its known result.
For `O=C(Sc1cccc2cccnc12)c1ccccc1Br` , write its GFP response relative to DMSO.
144

Give GFP response relative to DMSO for `O=C1C(Cl)=C(Nc2ccc(F)cc2)C(=O)N1CCc1ccccc1`
95.9

State its GFP response relative to DMSO for this molecule: `Cc1ccc(C2=NOC(=O)/C2=C\c2ccc(C)o2)cc1`
134

Return the recorded GFP response relative to DMSO value; entry: `COCc1nnc(NC(=O)c2ccc(S(=O)(=O)N(C)C3CCCCC3)cc2)o1`
102

Dear colleague, please send me the reported GFP response relative to DMSO for `Cc1ccc2[nH]cc(/C=C/c3cc[n+](C)cc3)c2c1` when you can.
156

Continuing:
Quote GFP response relative to DMSO reported for `COc1cc(NC(=O)c2ccc(C)cc2C)ccc1NC(=O)c1cc2ccccc2o1` please.
97.5

Using the record for `Clc1ccccc1N=C1NN=C(c2cccs2)CS1` , state its measured GFP response relative to DMSO.
106

Fill in reported GFP response relative to DMSO for this entry: Cc1ccc(N2C(=O)c3ccccc3NC2c2ccccc2O)cc1 (stereo unspecified)
96

Note GFP response relative to DMSO for the molecule shown: `CC(=O)c1cc(NC(=O)c2ccc(C)cc2)c(=O)oc1C`
104

Tell me its GFP response relative to DMSO given `O=C(OCn1ncc(Br)c(Br)c1=O)c1ccccc1Cl` as the entry.
150

For the molecule O=C(CC1SC(=Nc2ccccc2F)N(CCN2CCOCC2)C1=O)Nc1ccc(F)cc1F (stereo unspecified) , give its reported GFP response relative to DMSO.
96
